Biological target: Angiotensin II Receptor (Bos taurus)
Construct: The brownish tissue forming the adrenal cortex is scraped off and finely minced with scissors before homogenization; tissue local slaughter house (maxwell-Cohen); host or cells: beef adrenal cortex, 100,000 x g microsomal membranes
Sequence (P25104 1-359): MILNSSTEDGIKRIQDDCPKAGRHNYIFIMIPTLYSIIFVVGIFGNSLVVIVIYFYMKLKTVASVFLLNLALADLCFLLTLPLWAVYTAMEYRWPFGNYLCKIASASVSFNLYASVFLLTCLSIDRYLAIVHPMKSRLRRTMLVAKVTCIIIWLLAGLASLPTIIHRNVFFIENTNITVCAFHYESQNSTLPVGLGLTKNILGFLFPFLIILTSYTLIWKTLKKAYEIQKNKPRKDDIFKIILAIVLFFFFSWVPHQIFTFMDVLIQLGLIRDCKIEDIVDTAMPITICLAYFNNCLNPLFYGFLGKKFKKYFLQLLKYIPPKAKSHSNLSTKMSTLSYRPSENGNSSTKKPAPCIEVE
Assay: Receptor Binding Assay: displacement of [^125 I](Sar^1,Ile^8)AngII from adrenal cortex microsomal membranes
Set-up: species or system beef (bovine adrenals)
Kindly supply the reported IC50 values for the records listed here.
Note: unit nM is implicit; provide only the numeric part.

In: Recorded IC50 for CCCCc1nc2ccc([C@H]3[C@@H]4C(=O)CC[C@@H]4ON3Cc3ccccc3)cc2c(=O)n1Cc1ccc(-c2ccccc2-c2nnn[nH]2)cc1 (relative stereo) , please?
Out: 78

In: Entry under review: CCCCc1nc2ccc([C@H]3[C@@H]4C5CCC(C5)[C@@H]4ON3C)cc2c(=O)n1Cc1ccc(-c2ccccc2-c2nnn[nH]2)cc1 (stereo partly drawn) . Reported IC50?
Out: 150

In: Looking for the measured IC50 of CCCCc1nc2ccc([C@H]3[C@@H]4C(=O)CC[C@@H]4ON3C)cc2c(=O)n1Cc1ccc(-c2ccccc2-c2nnn[nH]2)cc1 (relative stereo) , can you help?
Out: 57

====

system: Angiotensin II (AII) vasopressor response; experiment: AII Challenge: antagonism of angiotensin II vasopressor response in conscious spontaneously hypertensive rats; type: in vivo, rat (male okamoto-Aoki SHR); settings: SHR n=2; 5 mg/kg P.O.; AII 0.1 mcg/kg IV; 120 min post dose
Give measured Average Change for each item. Keep answers brief.
The reply should contain only the number, in mmHg.

In: # Average Change lookup, item CCCCc1nc2ccc([C@@H]3[C@H]4C(=O)CCC[C@H]4ON3C)cc2c(=O)n1Cc1ccc(-c2ccccc2-c2nnn[nH]2)cc1 (relative stereo)
Out: 19

In: Dear colleague, I am looking for the recorded Average Change of the following compound: CCCCc1nc2ccc([C@H]3[C@@H]4C(=O)CC[C@@H]4ON3C)cc2c(=O)n1Cc1ccc(-c2ccccc2-c2nnn[nH]2)cc1 (relative stereo)
Out: 5

In: Need Average Change, item CCCCc1nc2ccc([C@H]3[C@@H]4CCC[C@@H]4ON3C)cc2c(=O)n1Cc1ccc(-c2ccccc2-c2nnn[nH]2)cc1 (relative stereo)
Out: 22.5

In: Param item = CCCCc1nc2ccc([C@H]3[C@@H]4C(=O)OC[C@@H]4ON3C)cc2c(=O)n1Cc1ccc(-c2ccccc2-c2nnn[nH]2)cc1 (relative stereo) ; retrieve measured Average Change.
Out: 11

====

test system: Angiotensin II (AII) vasopressor response; test: AII Challenge: antagonism of angiotensin II vasopressor response in conscious spontaneously hypertensive rats; assay type: in vivo, rat (male okamoto-Aoki SHR); conditions: SHR n=2; 3 mg/kg I.V.; AII 0.1 mcg/kg IV; 90 min post dose
observation_type: Average Change (mmHg)
The figure you give is taken to be in mmHg; do not add the unit.

In: Query: Average Change; subject: CCCCc1nc2ccc([C@H]3[C@@H]4C(=O)OC[C@@H]4ON3C)cc2c(=O)n1Cc1ccc(-c2ccccc2-c2nnn[nH]2)cc1 (relative stereo)
Out: 16.5

In: // lookup Average Change for CCCCc1nc2ccc(C3CC4CCCCN3O4)cc2c(=O)n1Cc1ccc(-c2ccccc2-c2nnn[nH]2)cc1 (stereo not drawn)
Out: 27.5

In: Suppose we examine the molecule CCCCc1nc2ccc([C@H]3[C@@H]4C(=O)CC[C@@H]4ON3C)cc2c(=O)n1Cc1ccc(-c2ccccc2-c2nnn[nH]2)cc1 (relative stereo) ; what Average Change value has been reported?
Out: 10
